# tgt: T1, Histidine-tagged canine PD-1 protein (canine)
# T1 sequence: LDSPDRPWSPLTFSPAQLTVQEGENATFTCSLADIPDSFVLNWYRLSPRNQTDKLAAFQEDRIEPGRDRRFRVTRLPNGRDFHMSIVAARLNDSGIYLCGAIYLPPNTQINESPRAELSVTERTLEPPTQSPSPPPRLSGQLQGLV
# assay text: SPR (Biacore), dPD-1-His amine-coupled to CM5 chip, antibody injected, 1:1 Langmuir fit
quantity name: koff (s⁻¹)
The response must be a number in s⁻¹ with no trailing unit.

Recorded results for 5 binders are shown here.
- binder: "1B9-H1K1-IgG4 (antibody, V domains shown) VH: EVQLVQSGAEVKKPGASVKVSCKTSGYTFTSFWMNWVRLAPGAGLDWIGRVDPYDSETHYNQKFKDRVILTVDTSTSTAYMELSSLRAGDIAVYYCATQFGFSWLAYWGQGTLVTVSA VL: EIVMTQSPGSLAGSAGESVSINCKSSQSLLYSSNQKNYLAWYQQKPGESPKLLIYWASTRESGVPDRFSGSGSGTDFTLTINNLQAEDVGVYYCQQYYSNPYTFGQGTKLEIK"
  quantitative readout: 0.000454
- binder: "1B9-H1K2-IgG4 (antibody, V domains shown) VH: EVQLVQSGAEVKKPGASVKVSCKTSGYTFTSFWMNWVRLAPGAGLDWIGRVDPYDSETHYNQKFKDRVILTVDTSTSTAYMELSSLRAGDIAVYYCATQFGFSWLAYWGQGTLVTVSA VL: DIVMTQSPGSLAVSAGESVSINCKSSQSLLYSSNQKNYLAWYQQKPGESPKLLIYWASTRESGVPDRFSGSGSGTDFTLTINNVQAEDVGVYYCQQYYSNPYTFGQGTKLEIK"
  quantitative readout: 0.00049
- binder: "1D8-H2K2-dIgG4 (antibody, V domains shown) VH: EVQLVESGGDLVKPVGSLRLSCVASGFTFNNFGMSWVRQAPGKGLEWVATLSSGSSYTYYSDSVKGRFTISRDNAKNTLYLQMNSLRAEDTAMYYCTRGESRFAYWGQGTLVTVSA VL: GVVITQDPLSLAVTPGELVTISCRSSKSLLYKDGKTYLNWFLQKPGQTPRLLIYLMSTRASGVSDRFSGSGSGTDFTLKISRVEAEDVGVYYCQQLIEYPLTFGAGTKVELK"
  quantitative readout: 0.00262
- binder: "1D8-H1K2-dIgG4 (antibody, V domains shown) VH: EVQLVESGGDLVKPVGSLRLSCVASGFTFNNFGMSWVRQAPGKGLQWVATLSSGSSYTYYSDSVKGRFTISRDNAKNTLYLQMNSLRAEDTAMYYCTRGESRFAYWGQGTLVTVSA VL: GVVITQDPLSLAVTPGELVTISCRSSKSLLYKDGKTYLNWFLQKPGQTPRLLIYLMSTRASGVSDRFSGSGSGTDFTLKISRVEAEDVGVYYCQQLIEYPLTFGAGTKVELK"
  quantitative readout: 0.00248
- binder: "1B9-H2K1-IgG4 (antibody, V domains shown) VH: EVQLVQSGAEVKKPGASVKVSCKASGYTFTSFWMNWVRLAPGAGLEWIGRVDPYDSETHYNQKFKDRAILTVDTSTSTAYMELSSLRAGDIAVYYCATQFGFSWLAYWGQGTLVTVSA VL: EIVMTQSPGSLAGSAGESVSINCKSSQSLLYSSNQKNYLAWYQQKPGESPKLLIYWASTRESGVPDRFSGSGSGTDFTLTINNLQAEDVGVYYCQQYYSNPYTFGQGTKLEIK"
  quantitative readout: 0.000454

-- ask If you can, please state the reported koff value of 1B9-H2K2-IgG4 (antibody, V domains shown) VH: EVQLVQSGAEVKKPGASVKVSCKASGYTFTSFWMNWVRLAPGAGLEWIGRVDPYDSETHYNQKFKDRAILTVDTSTSTAYMELSSLRAGDIAVYYCATQFGFSWLAYWGQGTLVTVSA VL: DIVMTQSPGSLAVSAGESVSINCKSSQSLLYSSNQKNYLAWYQQKPGESPKLLIYWASTRESGVPDRFSGSGSGTDFTLTINNVQAEDVGVYYCQQYYSNPYTFGQGTKLEIK .
-- reply 0.00043

-- ask Try the binder 1D8-H2K1-dIgG4 (antibody, V domains shown) VH: EVQLVESGGDLVKPVGSLRLSCVASGFTFNNFGMSWVRQAPGKGLEWVATLSSGSSYTYYSDSVKGRFTISRDNAKNTLYLQMNSLRAEDTAMYYCTRGESRFAYWGQGTLVTVSA VL: GVVITQDPLSLAVTPGELVTISCRSSKSLLYKDGKTYLNWYLQKPGQTPRLLIYLMSTRASGVSDRFSGSGSGTDFTLKISRVEAEDVGVYYCQQLIEYPLTFGAGTKVELK
-- reply 0.00348

-- ask Try the binder 4A7-mHvKv-dIgG4 (antibody, V domains shown) VH: EVQLVESGGDLVKPGGSLKLSCVASGFPFSNFGMSWVRQTPDKRLEWVATISSGSSYSYYSDSVKGRFTISRDNAKNTLFLQMNSLKSEDTAIFYCARGESRFAYWGQGTLVTVSA VL: DVVITQDELSNPVTSGESVSISCRSNKSLLYEDGQTYLNWFLQRPGQSPQLLIYLMSTRASGVSDRFSGSGSGTDFTLEISEVRAEDVGVYYCQQLIEYPLTFGAGTKLELKR
-- reply 0.000152

-- ask Try the binder 1D8-H1K1-dIgG4 (antibody, V domains shown) VH: EVQLVESGGDLVKPVGSLRLSCVASGFTFNNFGMSWVRQAPGKGLQWVATLSSGSSYTYYSDSVKGRFTISRDNAKNTLYLQMNSLRAEDTAMYYCTRGESRFAYWGQGTLVTVSA VL: GVVITQDPLSLAVTPGELVTISCRSSKSLLYKDGKTYLNWYLQKPGQTPRLLIYLMSTRASGVSDRFSGSGSGTDFTLKISRVEAEDVGVYYCQQLIEYPLTFGAGTKVELK
-- reply 0.00309

-- ask Try the binder 1D8-mHvKv-dIgG4 (antibody, V domains shown) VH: EVQLVESGGDLVKPGGSLKLSCAASGFTFNNFGMSWVRQNPDKRLEWVATLSSGSSYTYYSDSVKGRFTISRDNAKNTLYLQMNSLKSEDTAMYYCTRGESRFAYWGQGTLVTVSA VL: GVVITQDELSNPVTSGESVSISCRSSKSLLYKDGKTYLNWFLQRPGQSPQLLIYLMSTRASGVSDRFSGSGSGTDFTLEISRVKAEDVGVYYCQQLIEYPLTFGAGTKLELKR
-- reply 0.000135
